In this section, each of the substances is paired with its reported EC50.
# Measured target: hGLP-1R (Homo sapiens)
# Sequence (P43220 24-463): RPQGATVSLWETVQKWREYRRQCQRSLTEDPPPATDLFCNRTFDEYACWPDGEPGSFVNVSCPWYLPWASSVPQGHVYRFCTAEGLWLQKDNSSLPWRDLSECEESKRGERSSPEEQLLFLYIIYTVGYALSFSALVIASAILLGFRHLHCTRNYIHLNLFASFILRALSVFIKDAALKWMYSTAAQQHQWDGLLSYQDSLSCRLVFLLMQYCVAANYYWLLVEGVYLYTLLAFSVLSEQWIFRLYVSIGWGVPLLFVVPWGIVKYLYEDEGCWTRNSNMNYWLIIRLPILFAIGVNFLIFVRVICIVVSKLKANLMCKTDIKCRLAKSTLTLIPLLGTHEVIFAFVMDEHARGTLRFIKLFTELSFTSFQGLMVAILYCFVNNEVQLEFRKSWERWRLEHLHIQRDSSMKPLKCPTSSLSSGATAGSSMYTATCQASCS
# Run description: Functional cAMP activation in the presence of 0.1% casein (no HSA);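 note: intracellular cAMP rise after 30 min at 37 °C read by HTRF, normalized between buffer only (0%) and maximal control ligand (100%), four-parameter variable-slope fit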
# Assay type: cell-based
# Protocol conditions: in the presence of 0.1% casein (no HSA); geometric mean; read-out: Relative cAMP EC50, hGLP-1R
Starred links: 1 amine or outer side, 2 acyl side, 3 side chain; linkers in the order of their positions; H or OH if unused. Non-standard residues stand in square brackets, D forms with d. Groups on a side chain read outwards from the residue. No end group written: not given here. *: point of attachment. C20 diacid = O=C(O)CCCCCCCCCCCCCCCCCCC(=O)*; C18 diacid = O=C(O)CCCCCCCCCCCCCCCCC(=O)*; αMePhe(2-F) = C[C@](N)(Cc1ccccc1F)C(=O)O; γGlu = O=C(O)[C@H](CCC(=O)[*:2])N[*:1]; αMe4Pal = C[C@](N)(Cc1ccncc1)C(=O)O; αMeY = C[C@](N)(Cc1ccc(O)cc1)C(=O)O; αMeF = C[C@](N)(Cc1ccccc1)C(=O)O; 4Pal = N[C@@H](Cc1ccncc1)C(=O)O; αMeL = CC(C)C[C@](C)(N)C(=O)O; αMeS = C[C@](N)(CO)C(=O)O; Orn = NCCC[C@H](N)C(=O)O; AEEA = NCCOCCOCC(=O)O; Aib = CC(C)(N)C(=O)O

# example entries with known answers
Substance	EC50
H-Y[Aib]QGT[αMePhe(2-F)]TSDYSILLDKQAQK([AEEA-AEEA-γGlu-C20 diacid])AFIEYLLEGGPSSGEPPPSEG-NH2 [Example 345]	658 pM
H-Y[Aib]QGTFTSD[4Pal]SQ[αMeL]LD[Orn]K([AEEA-γGlu-C18 diacid])AQ[αMe4Pal]AFIE[αMeY]LIEGGPSSGAPPPSGSEE-NH2 [Example 1041]	1240 pM

Next:
Problem: Entry Y[Aib]QGT[αMeF]TSD[4Pal][αMeS]I[αMeL]LD[Orn]K([AEEA-γGlu-C18 diacid])AQ[αMe4Pal]EFI[dE][αMeY]LIEGGPSSGAPPPSGGGE-NH2 [Example 1168] : reported EC50 = ?
Result: 422 pM
